# credit: paper PMC8201479

FP, Average (mP) values by entry
Biological target: LIN28–let-7 interaction (Homo sapiens, UniProt Q9H9Z2)
Construct: Purified LIN28A (residues 16–187) was incubated at a concentration of 200 nM; His-tag (cleaved yes); made in house; host or cells: Escherichia coli BL21(DE3)
Assay: Fluorescence polarization (FP) assay, LIN28A (residues 16–187) and FAM-labeled preE-let-7f-1
Assay type: binding
Settings: raw data Table S3; 59.375 μM compound; four replicates
Give your result in mP as a bare value.

Below, 3 compounds whose answers are already recorded.
| COMPOUND | TARGET OF ASSAY | UNIT OF MEASUREMENT | MEASURED |
| --- | --- | --- | --- |
| O=C(C1=C(O)C(=O)N(c2ccc(O)c(C(=O)O)c2)C1c1ccc(-c2nccs2)cc1)c1ccccc1 (stereo not shown) | LIN28–let-7 interaction (Homo sapiens, UniProt Q9H9Z2) | mP | 53.40 |
| O=C(C1=C(O)C(=O)N(c2ccc(O)c(C(=O)O)c2)C1c1ccc(-c2nccs2)cc1)c1ccco1 (stereo not shown) | LIN28–let-7 interaction (Homo sapiens, UniProt Q9H9Z2) | mP | 33.68 |
| O=C(O)c1ccc(C2C(C(=O)c3ccccc3)=C(O)C(=O)N2c2ccc(O)cc2)cc1 (stereo not shown) | LIN28–let-7 interaction (Homo sapiens, UniProt Q9H9Z2) | mP | 79.35 |

IN: Given the compound O=C(O)c1ccc(C2C(C(=O)c3ccccc3)=C(O)C(=O)N2c2ccc(O)c(C(=O)O)c2)cc1 (stereo not shown) , write its reported FP, Average (mP).
OUT: 45.53

IN: Given the compound COc1ccc(C(=O)C2=C(O)C(=O)N(c3ccc(O)c(C(=O)O)c3)C2c2ccc(-c3nccs3)cc2)cc1OC (stereo not shown) , write its reported FP, Average (mP).
OUT: 54.00

IN: Given the compound O=C(C1=C(O)C(=O)N(c2ccc(O)c([N+](=O)[O-])c2)C1c1ccc(-c2nccs2)cc1)c1ccccc1 (stereo not shown) , write its reported FP, Average (mP).
OUT: 71.50

IN: Given the compound O=C(O)c1ccc(C2C(C(=O)c3ccccc3)=C(O)C(=O)N2c2ccc(C(=O)O)c(O)c2)cc1 (stereo not shown) , write its reported FP, Average (mP).
OUT: 49.00

IN: Given the compound O=C(C1=C(O)C(=O)N(c2ccc(C(=O)O)c(O)c2)C1c1ccc(-c2nccs2)cc1)c1ccc(Br)cc1 (stereo not shown) , write its reported FP, Average (mP).
OUT: 98.68

IN: Given the compound O=C(C1=C(O)C(=O)N(c2ccc(O)cc2)C1c1ccc(-c2nccs2)cc1)c1ccc(Br)cc1 (stereo not shown) , write its reported FP, Average (mP).
OUT: 93.48

IN: Given the compound O=C(C1=C(O)C(=O)N(c2ccc(O)c(C(=O)O)c2)C1c1ccc(-c2nccs2)cc1)c1ccc(Br)cc1 (stereo not shown) , write its reported FP, Average (mP).
OUT: 38.75

====

Molecular target: LIN28–let-7 complex (Homo sapiens, UniProt Q9H9Z2)
Construct: Purified LIN28A (residues 16–187) was incubated at a concentration of 200 nM; His-tag (cleaved yes)
Sequence (Q9H9Z2 16-187): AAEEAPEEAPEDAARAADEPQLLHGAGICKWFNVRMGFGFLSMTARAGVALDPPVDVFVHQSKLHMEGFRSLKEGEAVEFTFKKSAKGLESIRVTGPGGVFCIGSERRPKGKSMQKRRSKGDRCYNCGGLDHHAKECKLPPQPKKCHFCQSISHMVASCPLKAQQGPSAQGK
Assay: Electrophoretic mobility shift assay (EMSA)
Details: relative fluorescence intensity of let-7f divided by that of LIN28–let-7f complex plus let-7f
ENDPOINT LABEL: pIC50
As a rule, pIC50 stands for the negative log10 of the concentration, concentration in M.

IN: Given the compound O=C(C1=C(O)C(=O)N(c2ccc(O)c(C(=O)O)c2)C1c1ccc(-c2nccs2)cc1)c1ccc(Br)cc1 (stereo not shown) , write its reported pIC50.
OUT: 4.42

====

Target: LIN28–let-7 interaction (Homo sapiens)
Construct: Purified LIN28A (residues 16–187) was incubated at a concentration of 200 nM; His-tag (cleaved yes); made in house; host or cells: Escherichia coli BL21(DE3)
Assay: Fluorescence polarization (FP) assay, LIN28A (residues 16–187) and FAM-labeled preE-let-7f-1
Type: binding
Details: raw data Table S3; 9.375 μM compound; four replicates
# note: boundary value 100 mP maps to rule not met; FP, Average (mP) below it maps to rule met

For orientation, consider the following solved cases.
| MOLECULE | CLASS NAME |
| --- | --- |
| O=C(C1=C(O)C(=O)N(c2ccc(O)cc2)C1c1ccc(-c2nccs2)cc1)c1ccc(Br)cc1 (stereo not shown) | rule not met |
| O=C(O)c1ccc(C2C(C(=O)c3ccccc3)=C(O)C(=O)N2c2ccc(C(=O)O)c(O)c2)cc1 (stereo not shown) | rule met |
| O=C(C1=C(O)C(=O)N(c2ccc(O)c([N+](=O)[O-])c2)C1c1ccc(-c2nccs2)cc1)c1ccccc1 (stereo not shown) | rule met |

IN: Quick check: FP, Average (mP) of O=C(C1=C(O)C(=O)N(c2ccc(O)c(C(=O)O)c2)C1c1ccc(-c2nccs2)cc1)c1ccc(Br)cc1 (stereo not shown) under 100 mP?
OUT: rule met

IN: Quick check: FP, Average (mP) of O=C(C1=C(O)C(=O)N(c2ccc(O)c(C(=O)O)c2)C1c1ccc(-c2nccs2)cc1)c1ccccc1 (stereo not shown) under 100 mP?
OUT: rule met

IN: Quick check: FP, Average (mP) of O=C(C1=C(O)C(=O)N(c2ccc(C(=O)O)c(O)c2)C1c1ccc(-c2nccs2)cc1)c1ccc(Br)cc1 (stereo not shown) under 100 mP?
OUT: rule not met

IN: Quick check: FP, Average (mP) of O=C(O)c1ccc(C2C(C(=O)c3ccccc3)=C(O)C(=O)N2c2ccc(O)c(C(=O)O)c2)cc1 (stereo not shown) under 100 mP?
OUT: rule met

====

Target: LIN28–let-7 interaction (Homo sapiens)
Construct: Purified LIN28A (residues 16–187) was incubated at a concentration of 200 nM; His-tag (cleaved yes); made in house; host or cells: Escherichia coli BL21(DE3)
Assay: Fluorescence polarization (FP) assay, LIN28A (residues 16–187) and FAM-labeled preE-let-7f-1
Type: binding
ENDPOINT LABEL: IC50

IN: Write down measured IC50 (LIN28–let-7 interaction (Homo sapiens)) for this molecule. O=C(O)c1ccc(N2C(=O)C(O)=C(C(=O)c3ccc(Br)cc3)C2c2ccc(-c3nccs3)cc2)cc1 (stereo not shown)
OUT: > 100 µM

====

FP, Average (mP) values by entry
Biological target: LIN28–let-7 interaction (Homo sapiens)
Construct: Purified LIN28A (residues 16–187) was incubated at a concentration of 200 nM; His-tag (cleaved yes); made in house; host or cells: Escherichia coli BL21(DE3)
Experiment: Fluorescence polarization (FP) assay, LIN28A (residues 16–187) and FAM-labeled preE-let-7f-1
Format: binding
Details: raw data Table S3; 1.103 μM compound; four replicates
Give your result in mP as a bare value.

| COMPOUND | UNIT OF MEASUREMENT | MEASURED |
| --- | --- | --- |
| O=C(C1=C(O)C(=O)N(c2ccc(O)c(C(=O)O)c2)C1c1ccc(-c2nccs2)cc1)c1ccccc1 (stereo not shown) | mP | 113.50 |
| COc1ccc(C(=O)C2=C(O)C(=O)N(c3ccc(O)c(C(=O)O)c3)C2c2ccc(-c3nccs3)cc2)cc1OC (stereo not shown) | mP | 107.75 |
| O=C(C1=C(O)C(=O)N(c2ccc(O)cc2)C1c1ccc(-c2nccs2)cc1)c1ccc(Br)cc1 (stereo not shown) | mP | 109.50 |
| O=C(C1=C(O)C(=O)N(c2ccc(O)c([N+](=O)[O-])c2)C1c1ccc(-c2nccs2)cc1)c1ccccc1 (stereo not shown) | mP | 111.25 |
| O=C(O)c1ccc(C2C(C(=O)c3ccccc3)=C(O)C(=O)N2c2ccc(O)cc2)cc1 (stereo not shown) | mP | 112.00 |

IN: Given the compound O=C(C1=C(O)C(=O)N(c2ccc(O)c(C(=O)O)c2)C1c1ccc(-c2nccs2)cc1)c1ccco1 (stereo not shown) , write its reported FP, Average (mP).
OUT: 98.88

IN: Given the compound O=C(C1=C(O)C(=O)N(c2ccc(O)c(C(=O)O)c2)C1c1ccc(-c2nccs2)cc1)c1ccc(Br)cc1 (stereo not shown) , write its reported FP, Average (mP).
OUT: 105.75

====

Target: LIN28–let-7 interaction (Homo sapiens, UniProt Q9H9Z2)
Construct: Purified LIN28A (residues 16–187) was incubated at a concentration of 200 nM; His-tag (cleaved yes); made in house; host or cells: Escherichia coli BL21(DE3)
Test: Fluorescence polarization (FP) assay, LIN28A (residues 16–187) and FAM-labeled preE-let-7f-1
Assay type: binding
Settings: raw data Table S3; 9.375 μM compound; four replicates
ENDPOINT LABEL: FP, Average (mP)
Give your result in mP as a bare value.

Below, 2 compounds whose answers are already recorded.
| COMPOUND | FP, Average (mP) |
| --- | --- |
| COc1ccc(C(=O)C2=C(O)C(=O)N(c3ccc(O)c(C(=O)O)c3)C2c2ccc(-c3nccs3)cc2)cc1OC (stereo not drawn) | 82.98 |
| O=C(C1=C(O)C(=O)N(c2ccc(O)c(C(=O)O)c2)C1c1ccc(-c2nccs2)cc1)c1ccco1 (stereo not drawn) | 55.18 |

With those in mind, consider the next compound.
IN: Given the compound O=C(O)c1ccc(C2C(C(=O)c3ccccc3)=C(O)C(=O)N2c2ccc(O)cc2)cc1 (stereo not drawn) , write its reported FP, Average (mP).
OUT: 108.50
